- assay.details: Half life in plasma was determined at the peroral dose of 10 mg/kg in diet-induced obese (DIO) mice
- Format: ADME, organism-based
- Parameters: dose 10 mg/kg, route oral
- conditions.used: mouse, po
Reported values of half-life for individual entries
Just the number please, in h, no unit attached.

Use these answered entries as a reference point.
INSERT INTO measurements (chemical_smiles, readout_unit, measured) VALUES
  ('Nc1ccc2cccc(OCCCNCc3ccc(Cl)c(C(F)(F)F)c3)c2n1', 'h', 8.9),
  ('Nc1ccc2cccc(OCCCNC(=O)c3cccc(OC(F)(F)F)c3)c2n1', 'h', 1.2);

Attention now turns to another entry.
Ask | Give recorded half-life. N#Cc1cccc(C(=O)NCCCOc2cccc3ccc(N)nc23)c1
Reply | 1.4

* * *

Reported values of log10 IC50 for individual entries
- experimental.target: Melanin-concentrating hormone receptor 1 (Homo sapiens, UniProt Q99705)
- Sequence (Q99705 whole entry): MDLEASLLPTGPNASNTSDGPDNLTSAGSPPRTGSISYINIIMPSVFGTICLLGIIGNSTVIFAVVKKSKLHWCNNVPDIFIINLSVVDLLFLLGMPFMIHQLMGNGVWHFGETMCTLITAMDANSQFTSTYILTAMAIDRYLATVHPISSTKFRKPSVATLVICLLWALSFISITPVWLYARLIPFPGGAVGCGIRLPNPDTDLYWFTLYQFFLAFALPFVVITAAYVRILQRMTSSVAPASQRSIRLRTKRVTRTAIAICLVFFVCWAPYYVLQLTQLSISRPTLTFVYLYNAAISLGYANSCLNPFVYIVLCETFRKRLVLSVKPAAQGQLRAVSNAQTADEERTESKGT
- assay.details: Concentration required to inhibit binding of [125I]-MCH radioligand to human Melanin-concentrating hormone receptor 1 in IMR-32 I3.4.2 cell membranes
Please be aware that the numbers have been log10-transformed from IC50 in nM.

Use these answered entries as a reference point.
INSERT INTO measurements (molecule, experimental_target, measured) VALUES
  ('CC(CNc1ccc2[nH]ncc2c1)Oc1cccc2ccc(N)nc12 (stereo not given)', 'Melanin-concentrating hormone receptor 1 (Homo sapiens, UniProt Q99705)', 2.72),
  ('CN(C)CC1CCc2cc(NC(=O)c3ccc(-c4ccc(F)cc4)cc3)ccc2C1 (single isomer, unassigned; (-))', 'Melanin-concentrating hormone receptor 1 (Homo sapiens, UniProt Q99705)', 1.93),
  ('CC(C)c1ccc(C(=O)NCCCOc2cccc3ccc(N)nc23)cc1', 'Melanin-concentrating hormone receptor 1 (Homo sapiens, UniProt Q99705)', 1.78),
  ('CC(CNC1CC1)Oc1cccc2ccc(N)nc12 (stereo not given)', 'Melanin-concentrating hormone receptor 1 (Homo sapiens, UniProt Q99705)', 1.70);

Attention now turns to another entry.
Ask | Give recorded log10 IC50. Nc1ccc2cccc(OCCCNC(=O)Nc3ccc4c(c3)OCO4)c2n1
Reply | 0.70

* * *

- assay.details: Half life in brain was determined at the peroral dose of 10 mg/kg in diet-induced obese (DIO) mice
- Assay type: ADME, organism-based
- Set-up: dose 10 mg/kg, route oral
- conditions.used: mouse, po
assay.metric: half-life (h)
Just the number please, in h, no unit attached.

INSERT INTO assay_data (chemical_smiles, measured) VALUES
  ('N#Cc1cccc(C(=O)NCCCOc2cccc3ccc(N)nc23)c1', 1.6);

Attention now turns to another entry.
Ask | Give recorded half-life. Nc1ccc2cccc(OCCCNC(=O)c3cccc(OC(F)(F)F)c3)c2n1
Reply | 0.6

* * *

- experimental.target: Melanin-concentrating hormone receptor 1 (Homo sapiens)
- assay.details: Concentration required to inhibit binding of [125I]-MCH radioligand to human Melanin-concentrating hormone receptor 1 in IMR-32 I3.4.2 cell membranes
Reported values of log10 IC50 for individual entries
Please be aware that the numbers have been log10-transformed from IC50 in nM.

INSERT INTO measurements (molecule, measured) VALUES
  ('CC(CNCC1CC1)Oc1cccc2ccc(N)nc12 (centres undefined)', 1.90),
  ('N#Cc1cccc(C(=O)NCCCOc2cccc3ccc(N)nc23)c1', 0.48),
  ('COc1cccc(CNCC(C)Oc2cccc3ccc(N)nc23)c1 (centres undefined)', 0.00),
  ('Nc1ccc2cccc(OCCNCc3ccc4c(c3)OCO4)c2n1', 2.72),
  ('Nc1ccc2cccc(OCCCNC(=O)c3ccc4c(c3)OCO4)c2n1', 0.85);

Ask | Give recorded log10 IC50. COc1cccc(C(=O)NCCCOc2cccc3ccc(N)nc23)c1
Reply | 0.30

Ask | Give recorded log10 IC50. CC(CNC1CCCC1)Oc1cccc2ccc(N)nc12 (centres undefined)
Reply | 1.48
